tested on: OVCAR-4 ovarian; assay: NCI-60 one-dose screen, 48 h; conditions: 10 µM unless noted
The panel holds about 83,000 compounds, 20% with a hit somewhere; the sample as a whole holds those more often. Calls of active or inactive are those of the source. The calls were made as follows: active = growth percent below 10; inactive = the rest.
Your reply should match one of these outcome classes. active, inactive

Past entries and their recorded results:
{"columns": ["smilesStructure", "assignedLabel"],
 "data": [
  ["COc1ccc(-c2nc3c(ncc4ccc(=O)[nH]c43)s2)cc1", "inactive"],
  ["Cc1ccc(C[P+](c2ccccc2)(c2ccccc2)c2ccccc2)cc1", "active"]
]}

Field: next compound
Identify the outcome logged in this assay for the compound shown: `Clc1cc(Cl)c(Cl)c(-c2nnc(SCc3ccncc3Br)o2)c1`
inactive
